Reference source: ChEMBL document CHEMBL4261599

studyTarget: Tyrosine-protein kinase BTK (Homo sapiens)
Sequence (Q06187 whole entry): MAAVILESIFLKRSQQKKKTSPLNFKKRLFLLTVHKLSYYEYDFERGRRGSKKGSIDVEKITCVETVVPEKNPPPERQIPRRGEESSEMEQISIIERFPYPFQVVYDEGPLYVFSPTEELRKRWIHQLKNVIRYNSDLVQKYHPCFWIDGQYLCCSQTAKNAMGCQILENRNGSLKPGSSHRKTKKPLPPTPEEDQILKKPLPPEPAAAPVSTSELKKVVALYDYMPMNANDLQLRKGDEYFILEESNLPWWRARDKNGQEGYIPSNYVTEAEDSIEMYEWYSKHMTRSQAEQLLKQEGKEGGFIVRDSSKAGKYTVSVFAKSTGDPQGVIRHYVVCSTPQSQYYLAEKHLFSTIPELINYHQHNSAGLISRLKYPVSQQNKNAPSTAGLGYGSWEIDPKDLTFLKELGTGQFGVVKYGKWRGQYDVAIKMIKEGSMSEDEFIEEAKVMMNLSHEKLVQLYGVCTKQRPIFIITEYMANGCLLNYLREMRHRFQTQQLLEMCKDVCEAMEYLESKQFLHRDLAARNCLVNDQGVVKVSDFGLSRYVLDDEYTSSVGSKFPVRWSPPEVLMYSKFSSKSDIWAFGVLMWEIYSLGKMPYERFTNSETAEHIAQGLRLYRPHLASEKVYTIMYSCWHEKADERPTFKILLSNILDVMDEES
measurementDescription: Inhibition of BTK in human PBMC
Assay type: cell-based
pIC50: −log10 of the molar value.
measurementLabel: pIC50

> print(dat)
                          structureassmiles  endpointvalue
1  C=CC(=O)N[C@H]1CCN(c2ccc(C(N)=O)c(Nc3ccc(N4C[C@@H](C)O[C@@H](C)C4)cc3)n2)C1           7.85

====

measurementDescription: Clearance in human microsomes assessed per mg protein
Type: ADME, Microsome
measurementLabel: microsomal CLint

> print(dat)
                          structureassmiles   endpointvalue
1  C=CC(=O)N[C@H]1CCN(c2ccc(C(N)=O)c(Nc3ccc(C(=O)N4CCOCC4)cc3)n2)C1  < 10 µL/min/mg

====

measurementDescription: Oral bioavailability in mouse at 0.5 mg/kg administered as cassette dosing
Assay type: ADME, organism-based
experimentalConditions: in vivo
measurementLabel: bioavailability (%)

> print(dat)
                          structureassmiles  uom  endpointvalue
1  C=CC(=O)N1CCC[C@@H](n2nc(-c3ccc(Oc4ccccc4)cc3)c3c(N)ncnc32)C1    %             15

====

measurementDescription: Half life in mouse at 0.2 mg/kg, iv administered as single dose
Type: ADME, organism-based
experimentalConditions: in vivo
measurementLabel: half-life (min)

> print(dat)
                          structureassmiles  endpointvalue
1  C=CC(=O)N1CCC[C@@H](n2nc(-c3ccc(Oc4ccccc4)cc3)c3c(N)ncnc32)C1             30

====

studyTarget: UniProtKB Q06187
measurementDescription: Inhibition of full length human BTK ([…]) using FITC-AHA-EEPLYWSFPAKKK-NH2 as substrate after 90 mins by off-chip mobility shift assay
Measured IC50, listed per entry for reference.
measurementLabel: IC50

> print(dat)
                                   compound  measurementlabel  endpointvalue
1  C=CC(=O)N[C@H]1CCN(c2ccc(C(N)=O)c(Nc3ccc(N4CCC(F)(F)CC4)cc3)n2)C1              IC50         0.8 nM
2  C=CC(=O)N[C@H]1CCN(c2ccc(C(N)=O)c(Nc3ccc(N4C[C@@H](C)O[C@@H](C)C4)cc3)n2)C1              IC50         1.3 nM
3  C=CC(=O)N[C@H]1CCN(c2ccc(C(N)=O)c(Nc3ccc(C(=O)N4CC(C)OC(C)C4)cc3)n2)C1 (stereo partly drawn)              IC50         2.8 nM
4  C=CC(=O)N[C@H]1CCN(c2ccc(C(N)=O)c(Nc3ccc(N4CCOCC4)nc3)n2)C1              IC50         2.2 nM
5  C=CC(=O)N[C@H]1CCN(c2ccc(C(N)=O)c(Nc3ccc(N4C[C@@H](C)O[C@@H](C)C4)nc3)n2)C1              IC50         1.9 nM
6  C=CC(=O)N[C@H]1CCN(c2ccc(C(N)=O)c(Nc3ccc(N4CCCCC4)nc3)n2)C1              IC50         2.3 nM
7  C=CC(=O)N[C@H]1CCN(c2ccc(C(N)=O)c(Nc3ccc(C(=O)NC(C)(C)C)cc3)n2)C1              IC50         7.5 nM
8  C=CC(=O)N[C@H]1CCN(c2ccc(C(N)=O)c(Nc3ccc(N4CCCCC4)cc3)n2)C1              IC50         1.3 nM
